The reported measurements were obtained from patent US9029508.

Assay target: DLL4 (human, UniProt Q9NR61)
Sequence (Q9NR61 27-524): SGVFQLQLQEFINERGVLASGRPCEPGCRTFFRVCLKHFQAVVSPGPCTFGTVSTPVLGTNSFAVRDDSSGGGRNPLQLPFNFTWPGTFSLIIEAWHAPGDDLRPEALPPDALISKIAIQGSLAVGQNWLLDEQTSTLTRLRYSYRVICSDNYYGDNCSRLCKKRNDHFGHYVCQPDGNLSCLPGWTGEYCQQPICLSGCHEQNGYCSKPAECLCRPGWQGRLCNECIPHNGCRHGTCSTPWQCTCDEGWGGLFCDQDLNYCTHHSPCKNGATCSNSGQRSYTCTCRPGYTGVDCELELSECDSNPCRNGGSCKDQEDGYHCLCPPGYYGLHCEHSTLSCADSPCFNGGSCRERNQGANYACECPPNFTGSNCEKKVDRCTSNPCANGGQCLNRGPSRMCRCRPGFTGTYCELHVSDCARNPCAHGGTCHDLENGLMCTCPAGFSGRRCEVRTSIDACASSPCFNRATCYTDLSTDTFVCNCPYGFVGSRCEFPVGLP
Method notes: ELISA
Listing: pEC50 of selected binders
// field semantics: pEC50 = negative decimal log of concentration (mol/L)

Entry DVD464 DLL4 arm (antibody, V domains shown, DVD-Ig inner) VH: QVQLVQSGAEVKKPGASVKISCKASGYSFTAYYIHWVKQAPGQGLEWIGYISSYNGATNYNQKFKGRVTFTTDTSTSTAYMELRSLRSDDTAVYYCARDYDYDVGMDYWGQGTLVTVSS VL: DIVMTQSPDSLAVSLGERATISCRASESVDNYGISFMKWFQQKPGQPPKLLIYAASNQGSGVPDRFSGSGSGTDFTLTISSLQAEDVAVYYCQQSKEVPWTFGGGTKVEIKR — recorded pEC50 = 9.10

Entry DVD457 DLL4 arm (antibody, V domains shown, DVD-Ig outer) VH: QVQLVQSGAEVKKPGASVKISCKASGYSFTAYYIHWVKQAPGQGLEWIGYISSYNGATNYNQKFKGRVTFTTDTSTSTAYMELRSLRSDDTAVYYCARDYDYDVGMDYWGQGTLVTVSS VL: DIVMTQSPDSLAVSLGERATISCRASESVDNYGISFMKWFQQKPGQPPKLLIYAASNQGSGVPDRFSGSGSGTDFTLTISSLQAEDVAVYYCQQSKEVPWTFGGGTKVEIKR — recorded pEC50 = 9.89

Entry DVD486 DLL4 arm (antibody, DVD-Ig inner) chain 1: EVQLVESGGGLVQPGGSLRLSCAASGFTFTDNWISWVRQAPGKGLEWVGYISPNSGFTYYADSVKGRFTISADTSKNTAYLQMNSLRAEDTAVYYCARDNFGGYFDYWGQGTLVTVSS chain 2: DIQMTQSPSSLSASVGDRVTITCRASQDVSTAVAWYQQKPGKAPKLLIYSASFLYSGVPSRFSGSGSGTDFTLTISSLQPEDFATTYYCQQSYTGTVTFGQGTKVEIKR — recorded pEC50 = 9.23

Entry DVD527 DLL4 arm (antibody, V domains shown, DVD-Ig outer) VH: EVQLQQSGPELEKPGASVKISCKASGYSFTGYNMNWVKQSNGKSLEWIGNIDPYFGGTNYNQKFKGKATLTVDKSSSTAYMQLKSLTSEDSAVYYCARNYDYDGGCFDYWGQGTTLTVSS VL: QAVVTQESALTTSPGETVTLTCRSSTGAVTTSNYANWVQEKPDHLFTGLIGGTNNRAPGVPARFSGSLIGDKAALTITGAQTEDEAIYFCALWYSNHWVFGGGTKLTVLG — recorded pEC50 = 9.70

Entry DVD532 DLL4 arm (antibody, V domains shown, DVD-Ig inner) VH: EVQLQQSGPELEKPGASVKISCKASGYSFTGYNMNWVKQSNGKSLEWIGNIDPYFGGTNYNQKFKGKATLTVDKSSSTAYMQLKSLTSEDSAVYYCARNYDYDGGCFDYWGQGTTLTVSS VL: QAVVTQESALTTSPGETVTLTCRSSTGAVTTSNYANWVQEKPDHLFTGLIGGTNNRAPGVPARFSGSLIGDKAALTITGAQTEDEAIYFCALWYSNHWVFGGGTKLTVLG — recorded pEC50 = 8.84

Entry DVD470 DLL4 arm (antibody, DVD-Ig inner) chain 1: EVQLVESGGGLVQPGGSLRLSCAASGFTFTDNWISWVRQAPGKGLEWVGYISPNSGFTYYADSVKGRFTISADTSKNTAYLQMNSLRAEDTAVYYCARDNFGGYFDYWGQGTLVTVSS chain 2: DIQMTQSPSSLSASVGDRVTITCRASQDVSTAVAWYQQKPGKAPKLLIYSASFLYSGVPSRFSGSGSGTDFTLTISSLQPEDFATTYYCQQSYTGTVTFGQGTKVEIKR — recorded pEC50 = 9.72

Entry DVD478 DLL4 arm (antibody, DVD-Ig inner) chain 1: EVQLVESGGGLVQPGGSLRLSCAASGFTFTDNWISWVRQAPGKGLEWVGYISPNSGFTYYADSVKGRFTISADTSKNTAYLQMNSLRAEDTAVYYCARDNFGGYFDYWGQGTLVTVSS chain 2: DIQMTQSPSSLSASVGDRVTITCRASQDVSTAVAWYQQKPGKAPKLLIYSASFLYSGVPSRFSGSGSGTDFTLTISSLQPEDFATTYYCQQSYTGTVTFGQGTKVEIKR — recorded pEC50 = 8.60

Entry DVD517 DLL4 arm (antibody, V domains shown, DVD-Ig outer) VH: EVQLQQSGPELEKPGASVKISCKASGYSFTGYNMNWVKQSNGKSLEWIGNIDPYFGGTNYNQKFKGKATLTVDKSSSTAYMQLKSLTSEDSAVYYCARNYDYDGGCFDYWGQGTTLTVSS VL: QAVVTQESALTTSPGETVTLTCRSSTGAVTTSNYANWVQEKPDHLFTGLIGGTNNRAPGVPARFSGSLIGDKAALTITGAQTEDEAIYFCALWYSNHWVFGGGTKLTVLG — recorded pEC50 = 10.00

Continuing:
Entry DVD492 DLL4 arm (antibody, V domains shown, DVD-Ig inner) VH: EVQLQQSGPELVKPGASVKMSCKASGYTFTSYVINWVKQKPGQGLEWIGLINPYNDGTKYNEKFKVKATLTSDKSSSTAYMELSSLTSEDSAVYYCASYYYGSRYYFDYWGQGTTLTVSS VL: DIQMTQSSSYLSVSLGGRVTITCKASDHINNWLAWYQQKPGNAPRLLISGATSLETGVPSRFSGSGSGKDYTLSITSLQTEDVATYYCQQYWSIPLTFGAGTKLELKR — recorded pEC50 = 8.75

Entry DVD508 DLL4 arm (antibody, V domains shown, DVD-Ig inner) VH: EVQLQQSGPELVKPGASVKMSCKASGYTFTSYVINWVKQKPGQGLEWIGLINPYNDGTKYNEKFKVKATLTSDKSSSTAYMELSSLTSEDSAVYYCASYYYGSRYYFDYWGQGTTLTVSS VL: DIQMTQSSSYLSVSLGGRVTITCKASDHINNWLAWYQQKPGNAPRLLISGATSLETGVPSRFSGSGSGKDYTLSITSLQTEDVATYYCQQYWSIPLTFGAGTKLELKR — recorded pEC50 = 9.21
